Target chain: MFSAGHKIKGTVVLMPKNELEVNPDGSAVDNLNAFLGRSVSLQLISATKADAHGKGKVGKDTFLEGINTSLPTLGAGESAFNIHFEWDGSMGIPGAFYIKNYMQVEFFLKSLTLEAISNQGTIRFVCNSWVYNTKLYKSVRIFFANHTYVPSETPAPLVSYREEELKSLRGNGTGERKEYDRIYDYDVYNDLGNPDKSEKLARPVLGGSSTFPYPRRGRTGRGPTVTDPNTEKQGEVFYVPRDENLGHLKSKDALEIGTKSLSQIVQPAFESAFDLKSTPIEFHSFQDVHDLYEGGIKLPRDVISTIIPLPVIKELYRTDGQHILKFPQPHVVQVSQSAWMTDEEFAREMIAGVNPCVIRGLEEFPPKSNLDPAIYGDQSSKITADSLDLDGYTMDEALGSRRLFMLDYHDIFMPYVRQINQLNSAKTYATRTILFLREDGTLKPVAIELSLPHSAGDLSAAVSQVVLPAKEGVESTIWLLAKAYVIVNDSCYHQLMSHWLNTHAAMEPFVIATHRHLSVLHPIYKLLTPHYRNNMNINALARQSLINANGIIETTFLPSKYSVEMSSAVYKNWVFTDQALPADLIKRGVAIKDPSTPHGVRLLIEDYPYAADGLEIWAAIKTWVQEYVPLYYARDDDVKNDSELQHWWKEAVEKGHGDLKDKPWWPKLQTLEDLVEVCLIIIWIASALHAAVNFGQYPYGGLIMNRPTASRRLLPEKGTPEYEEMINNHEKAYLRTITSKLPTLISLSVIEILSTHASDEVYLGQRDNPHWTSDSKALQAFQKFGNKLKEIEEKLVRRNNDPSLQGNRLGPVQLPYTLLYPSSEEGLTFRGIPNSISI
VALUE KIND: pIC50
// pIC50 is dimensionless: -log10 of concentration (M)

Sample CC(=O)Oc1ccccc1C(=O)O — what was its pIC50?
3.12

Sample C[C@@H]1O[C@@H](OC[C@H]2O[C@@H](Oc3c(-c4ccc(O)c(O)c4)oc4cc(O)cc(O)c4c3=O)[C@H](O)[C@@H](O)[C@@H]2O)[C@H](O)[C@H](O)[C@H]1O — what was its pIC50?
4.14
